Where these numbers come from: patent US9216968B2

Let's go through some recorded IC50 values for human mPGES-1 (Homo sapiens (Human)) together.
Where a name gives a salt, the structure may show the parent alone.
Measure Name: IC50 (nM)

Cc1c(Cl)cccc1NC(=O)c1cc(NC(=O)c2ccccc2C(F)(F)F)cc2[nH]c(C3(C(F)(F)F)CC3)nc12 [Example 89] = 1.2

I = Cc1ccc(NC(=O)c2cc(NC(=O)c3c(F)cccc3Cl)cc3[nH]c(N(C)C)nc23)cc1Cl [Example 205, hydrochloride]
II = COCc1nc2c(C(=O)Nc3cccc(Cl)c3C)cc(NC(=O)c3c(F)cccc3Cl)cc2[nH]1 [Example 92, hydrochloride]
III = COCc1nc2c(C(=O)Nc3ccc(C(C)(C)C)cc3)cc(NC(=O)c3ccccc3C(F)(F)F)cc2[nH]1 [Example 27, hydrochloride]
IV = Cc1c(Cl)cccc1NC(=O)c1cc(NC(=O)c2ccccc2C(F)(F)F)cc2[nH]c(NCC(C)(C)O)nc12 [Example 167, hydrochloride]
Rank the items in ascending order with respect to IC50. Give me the labels in the order the question wants.
IV, III, I, II
(IV: 1 nM, III: 2.4 nM, I: 3.7 nM, II: 6.7 nM)
